ASSAY TARGET: T1, Anti-PSMA Fab (SEQ ID NOs: 19, 20)
T1 construct: In the phage ELISA the Fab was biotinylated and captured on neutravidin coated plates; also called 006 PSMA Fab
PROTOCOL SUMMARY: phage binding ELISA; biotinylated PSMA Fab captured on neutravidin plate, bound phage detected with anti-M13-HRP
Where no end group is shown, it is not given here.
Reported Anti-PSMA Fab (SEQ ID NOs: 19, 20) signal values for the following binders.
Reply: number alone, nothing else.

Completed entries (count: 3):
INSERT INTO results (binder, quantitative_result) VALUES
  ('INMWCIPAWMCQNT (Clonal phage of the Peptide-180 library) [Phage-2100]', 1.73),
  ('WGKLCIPEWMCTTQ (Clonal phage of the Peptide-180 library) [Phage-2095]', 1.74),
  ('IVKWCVPEWMCEGT (cysteine pairing not given here; also: fused to phage pIII, pIII sequence and linker not given here, Clonal phage of the Peptide-180 library) [Phage-2090]', 1.74);

The binder identified as VEKWCIPQWMCAEM (cysteine pairing not given here; also: fused to phage pIII, pIII sequence and linker not given here, Clonal phage of the Peptide-180 library) [Phage-2088] registered its Anti-PSMA Fab (SEQ ID NOs: 19, 20) signal at 1.74

// recorded Anti-PSMA Fab (SEQ ID NOs: 19, 20) signal for FEKWCIPAWMCAAV (Clonal phage of the Peptide-180 library) [Phage-2092] : 1.74

Notebook: VVHWCIPSWMCTEN (Clonal phage of the Peptide-180 library) [Phage-2094] , Anti-PSMA Fab (SEQ ID NOs: 19, 20) signal read as 1.74
